biological target: T1, extracellular domain (ECD) of human TrkA protein, N-terminal flag tag and C-terminal His tag (PHA) (human, UniProt P04629 33-423); experiment: BLI (Octet Red384), antibody captured on anti-human Fc AHQ tips, antigen 100 nM
T1 construct: Made in 293-F cells and purified by IMAC; also called TrkA ECD protein; TrkA (ECD); not shown: flag tag at the N-terminus (after the signal peptide); His tag at the C-terminus
T1 sequence (P04629 33-423): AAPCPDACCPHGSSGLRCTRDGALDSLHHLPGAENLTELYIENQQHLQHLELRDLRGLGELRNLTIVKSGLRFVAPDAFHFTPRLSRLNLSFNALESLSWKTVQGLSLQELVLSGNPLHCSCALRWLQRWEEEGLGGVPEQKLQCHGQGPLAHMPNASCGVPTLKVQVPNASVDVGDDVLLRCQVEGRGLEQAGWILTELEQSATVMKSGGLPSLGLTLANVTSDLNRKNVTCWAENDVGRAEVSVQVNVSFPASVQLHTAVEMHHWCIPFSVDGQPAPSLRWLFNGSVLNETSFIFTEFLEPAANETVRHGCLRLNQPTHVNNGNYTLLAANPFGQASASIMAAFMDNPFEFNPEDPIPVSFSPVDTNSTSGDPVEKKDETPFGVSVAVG
PROPERTY_MEASURED: koff (s⁻¹)
Write down the numeric answer in s⁻¹ and omit the unit.

Just so you know, measured koff for PHD49-01 (humanized muPHD49) (antibody, human IgG4, V domains shown) VH: QVQLVQSGAEVKKPGSSVKVSCKASGYTFSSYWMQWVRQAPGQGLEWIGAIYPGDDDTIYTQKFKGRATLTADKSTSTAYMELSSLRSEDTAVYYCARNYDYQAWFAYWGQGTLVTVSS VL: DIQMTQSPSSLSASVGDRVTITCSASSSVSYMYWYQQKPGKAPKPWIYLTSNLASGVPSRFSGSGSGTDYTLTISSLQPEDFATYYCQQWSSNPLTFGQGTKLEIK came out at 0.00098

So for chi-PHD49 (antibody, V domains shown, Chimeric: human IgG4 / human kappa constant regions (pCDNA3.4-hIgG4 and pCDNA3.4-hKappa vectors)) VH: QVQLQQSGAELARPGASVKLSCKASGYTFSSYWMQWVKQRPGQGLEWIGAIYPGDDDTIYTQKFKGKATLTADKSSSTAYMQLSSLASEDSAVYYCARNYDYQAWFAYWGQGTLVTVSA VL: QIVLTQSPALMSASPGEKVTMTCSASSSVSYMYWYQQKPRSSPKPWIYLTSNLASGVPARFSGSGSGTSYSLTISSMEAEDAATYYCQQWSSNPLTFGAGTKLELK , the logged koff turned out to be 0.000603

The binder listed as chi-PHD48 (the chimeric antibody derived from muPHD48) (antibody, V domains shown, Chimeric: VH in the pCDNA3.4-hIgG4 vector and VL in the pCDNA3.4-hKappa vector (human IgG4 / human kappa constant regions)) VH: EVQLQQSGTVLARPGASVKMSCKASGYSFTTYWMHWVKQRPGQGLEWIGTIYPGNSDSSNNQKFKGKAKLTAVTSASTAYMELSSLTNEDSAVYYCTRFYYEDWYFDVWGAGTTVTVSS VL: QIVLTQSPAIMSASPGEKVTISCSASSSVSYMYWFQQKPGSSPKPWIYRTSNLASGVPARFSGSGSGTSYSLTISSMEAEDAATYYCQQYHSYPPTFGGGTKLEIK has a reported koff of 0.00114

Query PHD48-01 (humanized muPHD48) (antibody, human IgG4, V domains shown) VH: QVQLVQSGAEVKKPGASVKVSCKASGYSFTTYWMHWVRQAPGQGLEWIGTIYPGNSDSSNNQKFKGRATLTADTSTSTAYMELSSLRSEDTAVYYCTRFYYEDWYFDVWGQGTMVTVSS VL: DIQMTQSPSSLSASVGDRVTITCSASSSVSYMYWFQQKPGKAPKPWIYRTSNLASGVPSRFSGSGSGTDYTLTISSLQPEDFATYYCQQYHSYPPTFGGGTKVEIK yields koff of 0.000634
